- tested system: Human recombinant PDE2A (hPDE2A) (Homo sapiens, UniProt O00408)
- Construct: made in house; host or cells: Sf9 insect cells (baculovirus)
- Sequence (O00408 whole entry): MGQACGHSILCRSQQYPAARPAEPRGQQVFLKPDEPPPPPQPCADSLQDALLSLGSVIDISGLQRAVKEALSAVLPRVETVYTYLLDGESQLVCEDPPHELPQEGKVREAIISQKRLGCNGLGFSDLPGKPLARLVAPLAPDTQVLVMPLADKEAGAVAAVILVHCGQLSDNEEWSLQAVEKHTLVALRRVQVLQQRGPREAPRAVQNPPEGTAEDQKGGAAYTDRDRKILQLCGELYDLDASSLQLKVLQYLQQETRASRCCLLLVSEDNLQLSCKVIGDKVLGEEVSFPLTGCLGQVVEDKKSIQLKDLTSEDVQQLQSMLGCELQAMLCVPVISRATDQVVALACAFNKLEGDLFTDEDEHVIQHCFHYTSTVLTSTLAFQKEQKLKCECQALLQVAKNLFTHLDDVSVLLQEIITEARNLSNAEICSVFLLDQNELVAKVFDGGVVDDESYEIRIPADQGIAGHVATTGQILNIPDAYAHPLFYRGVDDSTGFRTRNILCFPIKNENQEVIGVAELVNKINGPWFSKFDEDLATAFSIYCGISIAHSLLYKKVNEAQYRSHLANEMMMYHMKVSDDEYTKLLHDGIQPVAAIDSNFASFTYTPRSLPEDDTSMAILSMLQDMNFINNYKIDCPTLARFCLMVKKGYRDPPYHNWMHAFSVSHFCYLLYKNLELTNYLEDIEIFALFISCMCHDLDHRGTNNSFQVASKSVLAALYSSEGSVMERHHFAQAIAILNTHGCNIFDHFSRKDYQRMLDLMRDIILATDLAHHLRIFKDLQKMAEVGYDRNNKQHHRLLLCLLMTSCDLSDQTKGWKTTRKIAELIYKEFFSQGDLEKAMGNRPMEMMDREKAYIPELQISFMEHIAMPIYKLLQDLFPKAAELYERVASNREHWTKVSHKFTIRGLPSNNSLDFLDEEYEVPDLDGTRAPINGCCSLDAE
- method summary: In vitro assay PDE2A (SPA, 3H-cGMP)
- Format: biochemical
- settings: read-out: pIC50 PDE2 (converted)
Friendly reminder: IC50 below 30 nM is true, at or above is false.

IN: In plain terms, does `Cc1nc2ccc(C(=O)NCCO)cc2n2c(-c3ccccc3Cl)nnc12` come in under 30 nM for IC50?
OUT: true

IN: In plain terms, does `CCCOc1ccc(Cl)c(-c2nnc3c(C)nc4ccc(N5CCN(C)CC5)cc4n23)c1` come in under 30 nM for IC50?
OUT: true
